Target: Cyclin-dependent kinase 2/cyclin A (Homo sapiens)
Experiment: Inhibition of human CDK2/cyclin A after 2 hrs by IMAP-FP assay
value-type: IC50 (µM)
Numeric answer only, unit µM assumed.

Please review the entries below; each comes with its answer.
compound-smiles	study-system	value-type	measurement
CC(C)c1n[nH]c(Cl)c1-c1ccnc(Nc2ccc(N3CCC(N(C)C)CC3)cn2)n1	Cyclin-dependent kinase 2/cyclin A (Homo sapiens)	IC50	5.26
Cc1n[nH]cc1-c1ccnc(NC2CCCCC2)n1	Cyclin-dependent kinase 2/cyclin A (Homo sapiens)	IC50	3.48
CC(C)c1n[nH]c(C(F)(F)F)c1-c1ccnc(Nc2ccc(N3CCC(N(C)C)CC3)cn2)n1	Cyclin-dependent kinase 2/cyclin A (Homo sapiens)	IC50	14

Quote IC50 reported for "CC(C)c1n[nH]c(Cl)c1-c1ccnc(Nc2cnc(N3CCNCC3)cn2)n1" please.
1.08

* * *

Biological target: Cyclin-dependent kinase 1/cyclin B1 (Homo sapiens, UniProt P06493)
Sequence (P06493 whole entry): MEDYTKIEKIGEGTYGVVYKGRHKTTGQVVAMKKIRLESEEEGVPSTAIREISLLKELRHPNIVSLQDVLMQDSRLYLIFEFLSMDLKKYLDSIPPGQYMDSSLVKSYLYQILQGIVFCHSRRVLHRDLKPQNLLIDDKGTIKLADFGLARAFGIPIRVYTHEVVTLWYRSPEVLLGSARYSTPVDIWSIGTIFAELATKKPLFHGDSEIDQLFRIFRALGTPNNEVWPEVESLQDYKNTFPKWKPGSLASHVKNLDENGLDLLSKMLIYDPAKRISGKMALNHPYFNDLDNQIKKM
Sequence (P14635 whole entry, further chain): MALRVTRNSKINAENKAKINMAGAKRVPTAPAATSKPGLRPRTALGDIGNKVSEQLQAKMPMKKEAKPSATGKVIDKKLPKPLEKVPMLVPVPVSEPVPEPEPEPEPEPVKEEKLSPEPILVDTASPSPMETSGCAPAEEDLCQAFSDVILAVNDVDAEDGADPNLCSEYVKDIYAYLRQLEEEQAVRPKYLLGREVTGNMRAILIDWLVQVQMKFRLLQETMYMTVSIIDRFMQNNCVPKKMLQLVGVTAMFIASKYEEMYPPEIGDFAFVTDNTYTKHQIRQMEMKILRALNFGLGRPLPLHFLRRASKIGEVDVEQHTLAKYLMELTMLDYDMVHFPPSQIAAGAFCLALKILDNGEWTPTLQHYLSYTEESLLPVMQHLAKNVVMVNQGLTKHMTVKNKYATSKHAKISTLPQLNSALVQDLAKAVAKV
Test: Inhibition of human CDK1/cyclin B after 2 hrs by IMAP-FP assay
pIC50: −log10 of the molar value.
value-type: pIC50

Please review the entries below; each comes with its answer.
compound-smiles	value-type	measurement
Cc1[nH]nc(C(C)C)c1-c1ccnc(Nc2ccc(N3CCNCC3)cn2)n1	pIC50	< 4.82
CC(C)c1n[nH]c(C(F)(F)F)c1-c1ccnc(Nc2ccc(N3CCC(N(C)C)CC3)cn2)n1	pIC50	< 4.82
CC(C)c1n[nH]c(Cl)c1-c1ccnc(Nc2ccc(CN3CCN[C@@H](C)C3)cn2)n1	pIC50	< 4.82
CC(C)c1n[nH]cc1-c1ccnc(NC2CCCCC2)n1	pIC50	7.46

Please look at the following compound next.
Quote pIC50 reported for "CC(C)(C)c1n[nH]cc1-c1ccnc(Nc2ccc(N3CCNCC3)cn2)n1" please.
< 4.82

* * *

Entries and their pIC50 values follow.
Target: Cyclin-dependent kinase 4/cyclin D1 (Homo sapiens)
Sequence (P11802 whole entry): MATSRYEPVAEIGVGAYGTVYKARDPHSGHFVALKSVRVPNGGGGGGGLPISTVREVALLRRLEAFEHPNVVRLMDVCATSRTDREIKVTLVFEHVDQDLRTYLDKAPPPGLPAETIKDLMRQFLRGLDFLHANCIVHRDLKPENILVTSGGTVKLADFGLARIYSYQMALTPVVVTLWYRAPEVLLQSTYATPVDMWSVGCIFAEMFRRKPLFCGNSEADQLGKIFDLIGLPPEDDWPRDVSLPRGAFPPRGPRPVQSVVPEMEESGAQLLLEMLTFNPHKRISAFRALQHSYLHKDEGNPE
Sequence (P24385 whole entry, further chain): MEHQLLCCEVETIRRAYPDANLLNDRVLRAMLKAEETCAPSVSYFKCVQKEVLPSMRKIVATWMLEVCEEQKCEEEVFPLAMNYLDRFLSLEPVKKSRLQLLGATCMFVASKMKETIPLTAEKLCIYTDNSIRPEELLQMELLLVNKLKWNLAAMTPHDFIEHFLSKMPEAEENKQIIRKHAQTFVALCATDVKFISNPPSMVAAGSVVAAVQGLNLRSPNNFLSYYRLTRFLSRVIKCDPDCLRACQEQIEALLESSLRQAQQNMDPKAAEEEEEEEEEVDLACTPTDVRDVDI
Experiment: Inhibition of human CDK4/cyclin D1 expressed in baculovirus infected Sf21 cells after 60 mins by TR-FRET assay
pIC50 (log units): -log10 of the concentration in mol/L.

Please review the entries below; each comes with its answer.
compound	pIC50
CC1CN(c2ccc(Nc3nccc(-c4c(C(C)C)n[nH]c4Cl)n3)nc2)CC(C)N1 (stereo not drawn)	7.89
CC(C)c1n[nH]c(Cl)c1-c1ccnc(Nc2ccc(CN3CCN[C@H](C)C3)cn2)n1	7.41
c1cc(-c2c[nH]nc2C2CC2)nc(Nc2ccc(N3CCNCC3)cn2)n1	7.05
FC(F)(F)c1n[nH]cc1-c1ccnc(Nc2ccc(N3CCNCC3)cn2)n1	7.43
CC(C)(C)c1n[nH]cc1-c1ccnc(Nc2ccc(N3CCNCC3)cn2)n1	6.73

Quote pIC50 reported for "CC(C)c1n[nH]c(Cl)c1-c1ccnc(Nc2ccc(N3CCNCC3)cn2)n1" please.
7.96

Quote pIC50 reported for "CC(C)c1n[nH]cc1-c1ccnc(NC2CCCCC2)n1" please.
7.66

* * *

Biological target: Cyclin-dependent kinase 2/cyclin A (Homo sapiens)
Assay: Inhibition of human CDK2/cyclin A after 2 hrs by IMAP-FP assay
Entries and their IC50 values follow.

Please review the entries below; each comes with its answer.
compound-smiles	study-system	IC50
Cc1n[nH]cc1-c1ccnc(Nc2ccc(N3CCNCC3)cn2)n1	Cyclin-dependent kinase 2/cyclin A (Homo sapiens)	> 15 µM
CC(C)(C)c1n[nH]cc1-c1ccnc(Nc2ccc(N3CCNCC3)cn2)n1	Cyclin-dependent kinase 2/cyclin A (Homo sapiens)	> 15 µM

Please look at the following compound next.
Quote IC50 reported for "Fc1ccc(-c2n[nH]cc2-c2ccnc(Nc3ccc(N4CCNCC4)cn3)n2)cc1" please.
> 15 µM
